This listing pairs molecules with measured MIC.
# Tested on: Staphylococcus aureus
# Assay Notes: Compound tested for the activity against Staphylococcus aureus strain 6
# Type: functional
Peptide text beside a SMILES is read from it.
Reported Metric: MIC (µg/mL)

Molecule	System	Reported Metric	Comparator	Observed Result
CC(C)C[C@H](NC(=O)[C@H](CCCCN)NC(=O)[C@H](CC(C)C)NC(=O)[C@H](Cc1ccccc1)NC(=O)[C@H](CCCCN)NC(=O)[C@H](CCCCN)NC(=O)[C@H](C)NC(=O)[C@H](Cc1ccccc1)NC(=O)[C@H](CCCCN)NC(=O)[C@H](CCCCN)NC(=O)[C@H](Cc1ccccc1)NC(=O)[C@H](CC(C)C)NC(=O)[C@@H](N)CCCCN)C(=O)N[C@@H](Cc1ccccc1)C(=O)N[C@@H](CCCCN)C(=O)N[C@@H](C)C(=O)N[C@@H](Cc1c[nH]c2ccccc12)C(=O)O (H-KLFKKFAKKFLKLFKAW-OH)	Staphylococcus aureus	MIC	=	25
CC(C)C[C@H](NC(=O)[C@H](Cc1c[nH]c2ccccc12)NC(=O)[C@H](CCCCN)NC(=O)[C@H](CCCCN)NC(=O)[C@@H](N)Cc1c[nH]c2ccccc12)C(=O)N[C@@H](Cc1c[nH]c2ccccc12)C(=O)N[C@@H](C)C(=O)N[C@@H](CCCCN)C(=O)N[C@@H](Cc1c[nH]c2ccccc12)C(=O)O (H-WKKWLWAKW-OH)	Staphylococcus aureus	MIC	=	50
CC(C)C[C@H](NC(=O)[C@H](C)NC(=O)[C@H](CCCCN)NC(=O)[C@H](C)NC(=O)[C@H](CC(C)C)NC(=O)[C@H](CCCCN)NC(=O)[C@H](C)NC(=O)[C@H](CC(C)C)NC(=O)[C@H](CCCCN)NC(=O)[C@H](C)NC(=O)[C@H](CC(C)C)NC(=O)[C@H](CCCCN)NC(=O)[C@H](CCCCN)NC(=O)[C@H](C)NC(=O)[C@H](CC(C)C)NC(=O)[C@@H](N)CCCCN)C(=O)O (H-KLAKKLAKLAKLAKAL-OH)	Staphylococcus aureus	MIC	>	100
CC(C)C[C@H](NC(=O)[C@H](CCCCN)NC(=O)[C@H](CC(C)C)NC(=O)[C@H](Cc1c[nH]c2ccccc12)NC(=O)[C@H](CCCCN)NC(=O)[C@@H](N)CCCCN)C(=O)N[C@@H](Cc1c[nH]c2ccccc12)C(=O)N[C@@H](CCCCN)C(=O)N[C@@H](C)C(=O)N[C@@H](Cc1c[nH]c2ccccc12)C(=O)O (H-KKWLKLWKAW-OH)	Staphylococcus aureus	MIC	>	100

---

# Test system: Pseudomonas aeruginosa
# Assay Notes: Compound tested for the antimicrobial activity against Pseudomonas aeruginosa strain 8
# Format: functional
Peptide text beside a SMILES is read from it.
Reported Metric: MIC (µg/mL)

Compound	Observed Result
CC(C)C[C@H](NC(=O)[C@H](CCCCN)NC(=O)[C@H](CC(C)C)NC(=O)[C@H](Cc1c[nH]c2ccccc12)NC(=O)[C@H](CCCCN)NC(=O)[C@@H](N)CCCCN)C(=O)N[C@@H](Cc1c[nH]c2ccccc12)C(=O)N[C@@H](CCCCN)C(=O)N[C@@H](C)C(=O)N[C@@H](Cc1c[nH]c2ccccc12)C(=O)O (H-KKWLKLWKAW-OH)	50
CC(C)C[C@H](NC(=O)[C@H](CCCCN)NC(=O)[C@H](CC(C)C)NC(=O)[C@H](Cc1ccccc1)NC(=O)[C@H](CCCCN)NC(=O)[C@H](CCCCN)NC(=O)[C@H](C)NC(=O)[C@H](Cc1ccccc1)NC(=O)[C@H](CCCCN)NC(=O)[C@H](CCCCN)NC(=O)[C@H](Cc1ccccc1)NC(=O)[C@H](CC(C)C)NC(=O)[C@@H](N)CCCCN)C(=O)N[C@@H](Cc1ccccc1)C(=O)N[C@@H](CCCCN)C(=O)N[C@@H](C)C(=O)N[C@@H](Cc1c[nH]c2ccccc12)C(=O)O (H-KLFKKFAKKFLKLFKAW-OH)	12.5
CC(C)C[C@H](NC(=O)[C@H](C)NC(=O)[C@H](CCCCN)NC(=O)[C@H](C)NC(=O)[C@H](CC(C)C)NC(=O)[C@H](CCCCN)NC(=O)[C@H](C)NC(=O)[C@H](CC(C)C)NC(=O)[C@H](CCCCN)NC(=O)[C@H](C)NC(=O)[C@H](CC(C)C)NC(=O)[C@H](CCCCN)NC(=O)[C@H](CCCCN)NC(=O)[C@H](C)NC(=O)[C@H](CC(C)C)NC(=O)[C@@H](N)CCCCN)C(=O)O (H-KLAKKLAKLAKLAKAL-OH)	50
CC(C)C[C@H](NC(=O)[C@H](Cc1c[nH]c2ccccc12)NC(=O)[C@H](CCCCN)NC(=O)[C@H](CCCCN)NC(=O)[C@@H](N)Cc1c[nH]c2ccccc12)C(=O)N[C@@H](Cc1c[nH]c2ccccc12)C(=O)N[C@@H](C)C(=O)N[C@@H](CCCCN)C(=O)N[C@@H](Cc1c[nH]c2ccccc12)C(=O)O (H-WKKWLWAKW-OH)	50
CC(C)C[C@H](NC(=O)[C@H](CCCCN)NC(=O)[C@H](CC(C)C)NC(=O)[C@H](Cc1c[nH]c2ccccc12)NC(=O)[C@H](CCCCN)NC(=O)[C@H](CCCCN)NC(=O)[C@H](C)NC(=O)[C@H](Cc1c[nH]c2ccccc12)NC(=O)[C@H](CCCCN)NC(=O)[C@H](CCCCN)NC(=O)[C@H](Cc1c[nH]c2ccccc12)NC(=O)[C@H](CC(C)C)NC(=O)[C@@H](N)CCCCN)C(=O)N[C@@H](Cc1c[nH]c2ccccc12)C(=O)N[C@@H](CCCCN)C(=O)N[C@@H](C)C(=O)N[C@@H](Cc1c[nH]c2ccccc12)C(=O)O (H-KLWKKWAKKWLKLWKAW-OH)	12.5

---

# System: Pseudomonas aeruginosa
# Assay Notes: Compound tested for the antimicrobial activity against Pseudomonas aeruginosa strain 3
# Type: functional
Peptide text beside a SMILES is read from it.
Reported Metric: MIC (µg/mL)

Molecule	Reported Metric	Observed Result
CC(C)C[C@H](NC(=O)[C@H](CCCCN)NC(=O)[C@H](CC(C)C)NC(=O)[C@H](Cc1ccccc1)NC(=O)[C@H](CCCCN)NC(=O)[C@H](CCCCN)NC(=O)[C@H](C)NC(=O)[C@H](Cc1ccccc1)NC(=O)[C@H](CCCCN)NC(=O)[C@H](CCCCN)NC(=O)[C@H](Cc1ccccc1)NC(=O)[C@H](CC(C)C)NC(=O)[C@@H](N)CCCCN)C(=O)N[C@@H](Cc1ccccc1)C(=O)N[C@@H](CCCCN)C(=O)N[C@@H](C)C(=O)N[C@@H](Cc1c[nH]c2ccccc12)C(=O)O (H-KLFKKFAKKFLKLFKAW-OH)	MIC	6.25

---

Quick list: MIC per entry.
# System: Staphylococcus aureus
# Assay Notes: Compound tested for the activity against Staphylococcus aureus strain 9
# Type: functional
Peptide text beside a SMILES is read from it.

Compound	Comparator	MIC, µg/mL
CC(C)C[C@H](NC(=O)[C@H](C)NC(=O)[C@H](CCCCN)NC(=O)[C@H](C)NC(=O)[C@H](CC(C)C)NC(=O)[C@H](CCCCN)NC(=O)[C@H](C)NC(=O)[C@H](CC(C)C)NC(=O)[C@H](CCCCN)NC(=O)[C@H](C)NC(=O)[C@H](CC(C)C)NC(=O)[C@H](CCCCN)NC(=O)[C@H](CCCCN)NC(=O)[C@H](C)NC(=O)[C@H](CC(C)C)NC(=O)[C@@H](N)CCCCN)C(=O)O (H-KLAKKLAKLAKLAKAL-OH)	>	100
CC(C)C[C@H](NC(=O)[C@H](Cc1c[nH]c2ccccc12)NC(=O)[C@H](CCCCN)NC(=O)[C@H](CCCCN)NC(=O)[C@@H](N)Cc1c[nH]c2ccccc12)C(=O)N[C@@H](Cc1c[nH]c2ccccc12)C(=O)N[C@@H](C)C(=O)N[C@@H](CCCCN)C(=O)N[C@@H](Cc1c[nH]c2ccccc12)C(=O)O (H-WKKWLWAKW-OH)	=	50

---

# Test system: Pseudomonas aeruginosa
# Assay Notes: Compound tested for the antimicrobial activity against Pseudomonas aeruginosa strain 9
# Format: functional
Peptide text beside a SMILES is read from it.

Compound	MIC
CC(C)C[C@H](NC(=O)[C@H](CCCCN)NC(=O)[C@H](CC(C)C)NC(=O)[C@H](Cc1ccccc1)NC(=O)[C@H](CCCCN)NC(=O)[C@H](CCCCN)NC(=O)[C@H](C)NC(=O)[C@H](Cc1ccccc1)NC(=O)[C@H](CCCCN)NC(=O)[C@H](CCCCN)NC(=O)[C@H](Cc1ccccc1)NC(=O)[C@H](CC(C)C)NC(=O)[C@@H](N)CCCCN)C(=O)N[C@@H](Cc1ccccc1)C(=O)N[C@@H](CCCCN)C(=O)N[C@@H](C)C(=O)N[C@@H](Cc1c[nH]c2ccccc12)C(=O)O (H-KLFKKFAKKFLKLFKAW-OH)	> 100 µg/mL
CC(C)C[C@H](NC(=O)[C@H](C)NC(=O)[C@H](CCCCN)NC(=O)[C@H](C)NC(=O)[C@H](CC(C)C)NC(=O)[C@H](CCCCN)NC(=O)[C@H](C)NC(=O)[C@H](CC(C)C)NC(=O)[C@H](CCCCN)NC(=O)[C@H](C)NC(=O)[C@H](CC(C)C)NC(=O)[C@H](CCCCN)NC(=O)[C@H](CCCCN)NC(=O)[C@H](C)NC(=O)[C@H](CC(C)C)NC(=O)[C@@H](N)CCCCN)C(=O)O (H-KLAKKLAKLAKLAKAL-OH)	> 100 µg/mL
